- Test system: Echinochloa crus-gaffi (ECHCG)
- PROCEDURE_TEXT: Post-emergence glasshouse test, visual injury, ECHCG
- Type: in vivo, Echinochloa crus-galli
- CONDITION_SET: 336 h, Table 3, post-emergence, 125 g/ha, 14±1 days post application
So I've got a bunch of molecules here, and I need their pest or weed control at 125 g/ha values.
Give bare numbers, in %.

Consider the following illustrative entries.
Kindly state the measured pest or weed control at 125 g/ha obtained for Cc1cc(-c2cnc(NCC3CCCCC3)nc2C(C)C)on1 with Echinochloa crus-gaffi (ECHCG).
20

And for Cc1cc(-c2cnc(NCC3CCC3)nc2C(C)C)on1 ?
80

And for Cc1cc(-c2cnc(NCc3cccc(Cl)c3)nc2C(C)C)on1 ?
70

And for CCN(C)c1ncc(-c2cc(C)no2)c(C(C)C)n1 ?
0

Hi team, please reply with pest or weed control at 125 g/ha for each item in this list.
1. Cc1cc(-c2cnc(NC(C)C)nc2C(C)C)on1
2. CCc1nc(NC2CCCC2)ncc1-c1cc(C)no1
3. Cc1cc(-c2cnc(NCc3cccc(F)c3)nc2C2CC2)on1
4. Cc1cc(-c2cnc(NC3CCCCC3)nc2C(F)(F)F)on1
5. Cc1cc(-c2cnc(NC(C)(C)C)nc2C(C)C)on1
6. Cc1cc(-c2cnc(NC3CCCC3)nc2C)on1

[70, 30, 80, 50, 70, 50]

###

- System: Veronica persica (VERPE)
- PROCEDURE_TEXT: Post-emergence glasshouse test, visual injury, VERPE
- Format: in vivo
- CONDITION_SET: 336 h, Table 3, post-emergence, 500 g/ha, 14±1 days post application
- Experimental: Seeds of a variety of test species are grown in a sandy loam soil mixture, Lolium multiflorum (LOLMU), Amaranthus retroflexus (AMARE), Echinochloa crus-gaffi (ECHCG), Veronica persica (VERPE), Glycine max (GLXMA), Oryza sativa (ORYSA), Zea mays (ZEAMX), spring wheat (TRZAS), Ipomoea hederacea (IPOHE), Ipomoea purpurea (PHBPU), Stellaria media (STEME), Solanum nigrum (SOLNI), Digitaria sanguinalis (DIGSA), Setaria italica (SETIT), Alopecurus myosuroides (ALOMY) and Avena fatua (AVEFA). […]
So I've got a bunch of compounds here, and I need their pest or weed control at 500 g/ha values.
Answers are plain numbers, in %.

What pest or weed control at 500 g/ha value was documented for this compound, Cc1cc(-c2cnc(NC3CCCC3)nc2C(C)C)on1 ?
100

And for COc1ccc(CNc2ncc(-c3onc(C)c3C)c(-c3ccco3)n2)cc1 ?
70

And for Cc1cc(-c2cnc(N3CCN(S(=O)(=O)N(C)C)CC3)nc2C2CC2)on1 ?
0

And for Cc1cc(-c2cnc(NCc3ccccn3)nc2C(C)C)on1 ?
80

And for Cc1cc(-c2cnc(NCc3ccccc3F)nc2C(C)C)on1 ?
99

Hi team, please reply with pest or weed control at 500 g/ha for each item in this list.
1. Cc1cc(-c2cnc(N3CCC(O)C(C)C3)nc2C2CC2)on1 (stereo not shown)
2. Cc1cc(-c2cnc(N3CCC(C(N)=O)CC3)nc2C2CC2)on1

1: 60; 2: 0

###

- System: Echinochloa crus-gaffi (ECHCG)
- PROCEDURE_TEXT: Post-emergence glasshouse test, visual injury, ECHCG
- Assay type: in vivo, Echinochloa crus-galli
- CONDITION_SET: 336 h, Table 3, post-emergence, 62 g/ha, 14±1 days post application
RECORDED_METRIC: pest or weed control at 62 g/ha (%)
Answers are plain numbers, in %.

Consider the following illustrative entries.
Kindly state the measured pest or weed control at 62 g/ha obtained for Cc1cccc(CNc2ncc(-c3cc(C)no3)c(C(C)C)n2)c1 [Compound 99] with Echinochloa crus-gaffi (ECHCG).
70

And for Cc1cc(-c2cnc(NCc3ccc(Cl)cc3)nc2C(C)C)on1 [Compound 102] ?
80

And for Cc1cc(-c2cnc(NCc3ccccc3C)nc2C(C)C)on1 [Compound 98] ?
70

And for CC(C)c1nc(NC2CCCC2)ncc1-c1cncs1 [Compound 124] ?
0

And for Cc1cc(-c2cnc(NCc3ccc(F)cn3)nc2C(C)C)on1 [Compound 96] ?
40

Hi team, please reply with pest or weed control at 62 g/ha for each item in this list.
1. Cc1cc(-c2cnc(NCc3ccccc3)nc2C(C)C)on1 [Compound 94]
2. Cc1ccc(CNc2ncc(-c3cc(C)no3)c(C(C)C)n2)cc1 [Compound 100]
3. Cc1cc(-c2cnc(NCc3ccccc3Cl)nc2C(C)C)on1 [Compound 101]
4. Cc1cc(-c2cnc(NCc3ccncc3F)nc2C(C)C)on1 [Compound 95]
5. Cc1ncc(-c2cnc(NC3CCCC3)nc2C(C)C)s1 [Compound 123]
6. Cc1cc(-c2cnc(NCc3cccc(C#N)c3)nc2C(C)C)on1 [Compound 97]

80
80
70
60
0
70
